Assay: Approximate visual solubility in receiver fluids
Type: physicochemical
Conditions: aqueous with cosolvent or surfactant or cyclodextrin, 2% Tween-80 in PBS; read-out: Approximate visual solubility
readout: solubility

# solubility (compound: CC(=O)N1CCN(c2ccc(OCC3COC(Cn4ccnc4)(c4ccc(Cl)cc4Cl)O3)cc2)CC1 (stereo not shown) [ketoconazole] ) is < 646 µg/mL

###

Test: Effect of Tween-20 and Tween-80 on terbinafine HCl solubility in water and PBS
Type: physicochemical
Details: aqueous with cosolvent or surfactant or cyclodextrin, thermodynamic from solid; PBS and 5% Tween-80, 19° C., n = 3
Procedure: The influence of Tween-20 and Tween-80 on terbinafine HCl solubility in water and PBS was determined. The drug was added to each of the solvents until visual saturation was obtained, then left at controlled temperature (19° C.) or 24 hours. The saturated solutions were filtered and drug solubility in the filtrate was determined by UV spectrophotometer.
Structures can show the parent of a compound that is named as a salt.
readout: solubility at 24 h (µg/mL)
Kindly provide the numeric value in µg/mL only, without the unit symbol.

# solubility at 24 h (compound: CN(C/C=C/C#CC(C)(C)C)Cc1cccc2ccccc12 [terbinafine HCl] ) is 6530

###

Experiment: Effect of Tween-20 and Tween-80 on terbinafine HCl solubility in water and PBS
Format: physicochemical
Details: thermodynamic from solid; Distilled water, 19° C., n = 3
Where a name gives a salt, the structure may show the parent alone.
readout: solubility at 24 h (µg/mL)
Kindly provide the numeric value in µg/mL only, without the unit symbol.

# solubility at 24 h (compound: CN(C/C=C/C#CC(C)(C)C)Cc1cccc2ccccc12 [terbinafine HCl] ) is 6370

###

Assay: Approximate visual solubility in receiver fluids
Type: physicochemical
Conditions: aqueous buffer, 1% Propylene glycol in PBS; read-out: Approximate visual solubility
readout: solubility

# solubility (compound: CC(=O)N1CCN(c2ccc(OCC3COC(Cn4ccnc4)(c4ccc(Cl)cc4Cl)O3)cc2)CC1 (stereo not shown) [ketoconazole] ) is < 554 µg/mL

###

Assay: Approximate visual solubility in receiver fluids
Format: physicochemical
Details: aqueous buffer, Approximate visual solubility
readout: solubility

# solubility (molecule: Cc1cc(C2CCCCC2)n(O)c(=O)c1 [ciclopirox] ) is < 388 µg/mL

###

Test: Approximate visual solubility in receiver fluids
Format: physicochemical
Details: aqueous with cosolvent or surfactant or cyclodextrin, 20 mM B hydroxylpropyl cyclodextrin in PBS; read-out: Approximate visual solubility
readout: solubility

# solubility (molecule: CC(=O)N1CCN(c2ccc(OCC3COC(Cn4ccnc4)(c4ccc(Cl)cc4Cl)O3)cc2)CC1 (stereo not shown) [ketoconazole] ) is < 1030 µg/mL

###

Test: Approximate visual solubility in receiver fluids
Type: physicochemical
Conditions: aqueous with cosolvent or surfactant or cyclodextrin, 200 mM B hydroxylpropyl cyclodextrin in PBS; read-out: Approximate visual solubility
readout: solubility

# solubility (compound: CC(=O)N1CCN(c2ccc(OCC3COC(Cn4ccnc4)(c4ccc(Cl)cc4Cl)O3)cc2)CC1 (stereo not shown) ) is 2120 to 2370 µg/mL

###

Assay: Saturated solubility of terbinafine HCl in various solvents
Format: physicochemical
Details: aqueous buffer, thermodynamic from solid, Citrate buffer, pH 5, 19° C., n = 3
Where a name gives a salt, the structure may show the parent alone.
readout: solubility at 24 h (µg/mL)
Kindly provide the numeric value in µg/mL only, without the unit symbol.

# solubility at 24 h (molecule: CN(C/C=C/C#CC(C)(C)C)Cc1cccc2ccccc12 [terbinafine HCl] ) is 1810
